Recorded values, source ChEMBL document CHEMBL4152327.

system: SW-1736; assay: Cytotoxicity against human SW1736 cells after 96 hrs by SRB assay; assay type: functional, cell-based; details: SW-1736, 96 h
metricName: EC50

Here are 2 molecules together with their reported answers.
molecularString	targetOrTestSystem	experimentalResult
C[C@H]1[C@H](C)CC[C@]2(C)CC[C@]3(C)C(=CC(=O)[C@@H]4[C@@]5(C)CC[C@@H](O)[C@](C)(C(=O)OCc6ccccc6)[C@@H]5CC[C@]43C)[C@H]12	SW-1736	24.8 µM
C=C(C)[C@@H]1CC[C@]2(C(=O)O)CC[C@]3(C)[C@H](CC[C@@H]4[C@@]5(C)CC[C@H](O)C(C)(C)[C@@H]5CC[C@]43C)[C@@H]12	SW-1736	18.3 µM

Next up:
Query: Which measured EC50 value corresponds to CCN(CC)c1ccc2c(-c3ccccc3C(=O)N3CCCN(C(=O)[C@@]4(C)CC[C@]5(C)CC[C@]6(C)C(=CC(=O)[C@@H]7[C@@]8(C)CC[C@H](OC(C)=O)C(C)(C)[C@@H]8CC[C@]76C)[C@@H]5C4)CC3)c3ccc(=[N+](CC)CC)cc-3oc2c1 ?
Result: 0.22 µM
